Taken from patent US20200017592A1.

biological target: Macaca fascicularis IL-36R extracellular domain expressed with a C-terminal myc-myc-hexahistidine tag (Macaca fascicularis); assay: SPR (Biacore 4000), mAb captured on anti-human Fc, 25°C
MEASURED QUANTITY: t½ (min)
Number in min, nothing else.

# BINDER, t½ [min]
rows = [
    ("H4H14708P2 (antibody, human IgG4 S228P, kappa, V domains shown) VH: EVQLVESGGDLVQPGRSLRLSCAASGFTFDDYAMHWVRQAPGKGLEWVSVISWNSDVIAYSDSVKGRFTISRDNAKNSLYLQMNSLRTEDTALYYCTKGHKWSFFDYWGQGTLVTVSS VL: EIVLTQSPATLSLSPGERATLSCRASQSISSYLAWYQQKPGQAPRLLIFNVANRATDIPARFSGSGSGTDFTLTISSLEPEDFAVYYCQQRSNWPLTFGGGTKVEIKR", 20),
]

Recorded t½ of H4H14731P (antibody, human IgG4 S228P, kappa, V domains shown) VH: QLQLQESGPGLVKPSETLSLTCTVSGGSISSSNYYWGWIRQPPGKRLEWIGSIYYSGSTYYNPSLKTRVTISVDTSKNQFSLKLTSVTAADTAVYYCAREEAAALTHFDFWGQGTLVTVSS VL: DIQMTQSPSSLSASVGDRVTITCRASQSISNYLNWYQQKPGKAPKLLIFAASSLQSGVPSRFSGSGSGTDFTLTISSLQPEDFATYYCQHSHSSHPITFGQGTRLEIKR , please.
12

Recorded t½ of H4H14728P (antibody, human IgG4 S228P, kappa, V domains shown) VH: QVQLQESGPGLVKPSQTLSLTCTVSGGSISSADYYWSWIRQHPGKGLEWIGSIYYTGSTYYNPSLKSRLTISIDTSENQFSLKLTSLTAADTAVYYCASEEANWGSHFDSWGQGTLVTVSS VL: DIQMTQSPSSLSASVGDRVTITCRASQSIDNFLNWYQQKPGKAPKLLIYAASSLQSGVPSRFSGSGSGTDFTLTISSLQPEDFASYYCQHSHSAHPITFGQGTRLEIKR , please.
28

Recorded t½ of H4H14700P2 (antibody, human IgG4 S228P, kappa, V domains shown) VH: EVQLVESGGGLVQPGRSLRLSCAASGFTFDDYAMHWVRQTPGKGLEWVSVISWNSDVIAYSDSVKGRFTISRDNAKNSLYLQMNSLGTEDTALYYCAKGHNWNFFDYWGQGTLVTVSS VL: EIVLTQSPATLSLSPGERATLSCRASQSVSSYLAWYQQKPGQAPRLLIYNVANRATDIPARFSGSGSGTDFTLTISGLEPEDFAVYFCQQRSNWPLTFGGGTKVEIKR , please.
18
